Source of measurements: PubChem BioAssay (EPA / NIEHS)

test: APR_HepG2_CellCycleArrest_24hr: Apredica 24-hour HepG2 Assay for Cell Cycle Arrest (AID 2282905); settings: imaging, actives raise or lower the signal;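 further: cell cycle arrest scored as ratio of 2N to 4N nuclear DNA content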
Activity calls are given as the source filed them. How the source made its calls: active means hit-call score of the fitted dose curve at least 0.9, where 1 is the maximum; inactive means score below 0.9.
Possible outcomes: active, inactive

compound=C[C@H]1[C@H](c2ccc(Cl)cc2)SC(=O)N1C(=O)NC1CCCCC1 group=inactive
compound=CCc1ccc(C(=O)NN(C(=O)c2cc(C)cc(C)c2)C(C)(C)C)cc1 group=inactive
compound=O=C(O)C(F)(F)C(F)(F)C(F)(F)C(F)(F)C(F)(F)C(F)(F)C(F)(F)F group=inactive
compound=Cc1cc(C)nc(NC(=O)NS(=O)(=O)c2ccccc2C(=O)OC2COC2)n1 group=inactive
compound=O=C(O)COc1ccc(Cl)cc1Cl group=inactive
compound=COP(=O)(OC)OC=C(Cl)Cl group=active
compound=COC(=O)c1ccccc1S(=O)(=O)NC(=O)Nc1nc(C)nc(OC)n1 group=inactive
compound=CN1CSC(=S)N(C)C1 group=inactive
compound="ClC1C(Cl)C(Cl)C(Cl)C(Cl)C1Cl (stereo unspecified)" group=inactive
compound=CCC(C)(C)C(=O)OC1=C(c2ccc(Cl)cc2Cl)C(=O)OC12CCCCC2 group=active
compound=CCOc1nc(NC)nc(NC(=O)NS(=O)(=O)c2ccccc2C(=O)OC)n1 group=inactive

====

read-out: CYP2C8 (gene 1558); assay: LTEA_HepaRG_CYP2C8: Life Technologies and Expression Analysis (LTEA) Assay for CYP2C8 using HepaRG (AID 2283483); conditions: mRNA level, 48 h; actives raise or lower the signal
Active and inactive are the calls of the source. Rule for the calls: active = hit-call score of the fitted dose curve at least 0.9, where 1 is the maximum; inactive = score below 0.9.
Outcome codes: t = active, f = inactive

compound=O=C(Nc1ccccc1)Nc1cnns1 group=t
compound=Oc1ccc(Cl)cc1Cc1ccccc1 group=f
compound=CN1CSC(=S)N(C)C1 group=f
compound=OCCOc1ccccc1 group=f
compound="O=S1OCC2C(CO1)C1(Cl)C(Cl)=C(Cl)C2(Cl)C1(Cl)Cl (stereo not drawn)" group=t
compound=COc1nn(CSP(=S)(OC)OC)c(=O)s1 group=f
compound="CC(C)(C)C(O)/C(=C\\c1ccc(Cl)cc1Cl)n1cncn1 (stereo not drawn)" group=t
compound=O=[N+]([O-])/N=C1\NCCN1Cc1ccc(Cl)nc1 group=t
compound=O=C(O)CCCOc1ccc(Cl)cc1Cl group=t
compound=N#Cc1c(Cl)c(Cl)c(Cl)c(C#N)c1Cl group=t
compound="CC1(C)C(C=C(Cl)Cl)C1C(=O)OC(C#N)c1ccc(F)c(Oc2ccccc2)c1 (stereo not drawn)" group=t
compound=CC(C)OC(=O)Nc1cccc(Cl)c1 group=f
compound="O=C(NC(=O)c1c(F)cccc1F)Nc1ccc(OC(F)(F)C(F)OC(F)(F)F)c(Cl)c1 (stereo not drawn)" group=f

====

target: human Serotonin, 5-Hydroxytryptamine Receptor 5A (5HT5A), HTR5A (gene 3361); test: NVS_GPCR_h5HT5A: NovaScreen (NVS) G Protein-Coupled Receptor Assay for human Serotonin, 5-Hydroxytryptamine Receptor 5A (5HT5A) (AID 2283251)
Results filed as inconclusive are left out. Calls of active or inactive are those of the source. How the source made its calls: active means hit-call score of the fitted dose curve at least 0.9, where 1 is the maximum; inconclusive means response in the unintended direction; inactive means score below 0.9.
Outcome codes: yes (1) for active, no (0) for inactive

compound=O=C(O)C(F)(F)C(F)(F)C(F)(F)C(F)(F)C(F)(F)C(F)(F)C(F)(F)F group="no (0)"
compound="CC[C@H](C)[C@H]1O[C@]2(C=C[C@@H]1C)C[C@@H]1C[C@@H](C/C=C(\\C)[C@@H](O[C@H]3C[C@H](OC)[C@@H](O[C@H]4C[C@H](OC)[C@@H](O)[C@H](C)O4)[C@H](C)O3)[C@@H](C)/C=C/C=C3\\CO[C@@H]4[C@H](O)C(C)=C[C@@H](C(=O)O1)[C@]34O)O2 (tested in a mixture with another compound)" group="yes (1)"
compound=O=C(Nc1ccccc1)Nc1cnns1 group="yes (1)"

====

read-out: Urokinase-type plasminogen activator receptor (uPAR), PLAUR (gene 5329); assay: BSK_4H_uPAR: BioMAP Diversity Plus: 4H Assay for Urokinase-type plasminogen activator receptor (uPAR) Biomarker Activity (AID 2283030); settings: primary human endothelial cells (HUVEC); actives raise or lower the signal
Active and inactive are the calls of the source. How the source made its calls: active means hit-call score of the fitted dose curve at least 0.9, where 1 is the maximum; inactive means score below 0.9.
Labels: label 1 (active), label 0 (inactive)

compound=CCN(CC)C(=O)SCc1ccc(Cl)cc1 group="label 0"
compound=N#CN group="label 0"
compound="CC1(C)C(C=C(Cl)Cl)C1C(=O)OC(C#N)c1ccc(F)c(Oc2ccccc2)c1 (centres undefined)" group="label 0"
compound=COC(=O)c1ccccc1S(=O)(=O)NC(=O)Nc1nc(C)nc(OC)n1 group="label 0"
compound=[2H]C1([2H])[n+]2ccccc2-c2cccc[n+]2C1([2H])[2H] group="label 1"
compound=Cc1cc(C)nc(NC(=O)NS(=O)(=O)c2ccccc2C(=O)OC2COC2)n1 group="label 0"
compound=O=C(O)COc1ccc(Cl)cc1Cl group="label 0"
compound="CCC(C)Nc1c([N+](=O)[O-])cc(C(C)(C)C)cc1[N+](=O)[O-] (centres undefined)" group="label 0"
compound=Cc1[nH]c(=O)n(C(C)(C)C)c(=O)c1Cl group="label 0"
compound=Oc1cc(Cl)ccc1Oc1ccc(Cl)cc1Cl group="label 1"
compound=Clc1ccccc1-c1nnc(-c2ccccc2Cl)nn1 group="label 0"
compound=CCc1ccc(C(=O)NN(C(=O)c2cc(C)cc(C)c2)C(C)(C)C)cc1 group="label 1"
compound=C#CCN1C(=O)COc2cc(F)c(N3C(=O)C4=C(CCCC4)C3=O)cc21 group="label 0"
compound="CC(C)(C)C(O)/C(=C\\c1ccc(Cl)cc1Cl)n1cncn1 (centres undefined)" group="label 1"
compound=CCOc1nc(NC)nc(NC(=O)NS(=O)(=O)c2ccccc2C(=O)OC)n1 group="label 0"
compound=CCC(C)(C)C(=O)OC1=C(c2ccc(Cl)cc2Cl)C(=O)OC12CCCCC2 group="label 1"
compound=COc1cc(OC)nc(NC(=O)NS(=O)(=O)c2cc(NC=O)ccc2C(=O)N(C)C)n1 group="label 0"
compound=CNC(=O)/C=C(\C)OP(=O)(OC)OC group="label 0"
compound="CCC(C)(NC(=O)c1cc(Cl)c(C)c(Cl)c1)C(=O)CCl (centres undefined)" group="label 1"
compound=COC(=O)c1ccccc1CS(=O)(=O)NC(=O)Nc1nc(OC)cc(OC)n1 group="label 0"
compound=CNC(=O)Oc1cccc(N=CN(C)C)c1 group="label 0"
compound="CC(C)(C)C(O)C(Oc1ccc(Cl)cc1)n1cncn1 (centres undefined)" group="label 0"
compound=OCCOc1ccccc1 group="label 0"
compound=O=C1c2ccccc2C(=O)N1SC(Cl)(Cl)Cl group="label 0"

====

test: ATG_Oct_MLP_CIS: Attagene CIS-FACTORIAL HepG2 Assay for human Octamer-Binding Transcription Factor (Oct) (AID 2282993); details: HepG2 Attagene cis-factorial Oct reporter, mRNA; actives raise or lower the signal
The source made the active and inactive calls. How the source made its calls: active means hit-call score of the fitted dose curve at least 0.9, where 1 is the maximum; inactive means score below 0.9.
Outcomes: active, inactive

compound=O=C(O)CCCOc1ccc(Cl)cc1Cl group=inactive
compound=CCOc1nc(NC)nc(NC(=O)NS(=O)(=O)c2ccccc2C(=O)OC)n1 group=inactive
compound="CC1(c2ccc(Oc3ccccc3)cc2)OC(=O)N(Nc2ccccc2)C1=O (stereo unspecified)" group=active
compound=COc1cc(OC)nc(NC(=O)NS(=O)(=O)c2cc(NC=O)ccc2C(=O)N(C)C)n1 group=inactive
compound=C[C@H]1[C@H](c2ccc(Cl)cc2)SC(=O)N1C(=O)NC1CCCCC1 group=active
compound=Clc1ccccc1-c1nnc(-c2ccccc2Cl)nn1 group=inactive
compound=O=C(Nc1ccccc1)Nc1cnns1 group=active
compound="O=S1OCC2C(CO1)C1(Cl)C(Cl)=C(Cl)C2(Cl)C1(Cl)Cl (stereo unspecified)" group=inactive
compound=CN1CSC(=S)N(C)C1 group=active
compound=O=C(O)COc1ccc(Cl)cc1Cl group=inactive
compound="CCOC1Oc2ccc(OS(C)(=O)=O)cc2C1(C)C (stereo unspecified)" group=active
compound=[2H]C1([2H])[n+]2ccccc2-c2cccc[n+]2C1([2H])[2H] group=inactive
compound=O=[N+]([O-])/N=C1\NCCN1Cc1ccc(Cl)nc1 group=inactive
compound=CNC(=O)Oc1cccc(N=CN(C)C)c1 group=active
compound=COc1nn(CSP(=S)(OC)OC)c(=O)s1 group=active
compound=O=[N+]([O-])c1c(Cl)c(Cl)c(Cl)c(Cl)c1Cl group=inactive
compound="CC[C@H](C)[C@H]1O[C@]2(C=C[C@@H]1C)C[C@@H]1C[C@@H](C/C=C(\\C)[C@@H](O[C@H]3C[C@H](OC)[C@@H](O[C@H]4C[C@H](OC)[C@@H](O)[C@H](C)O4)[C@H](C)O3)[C@@H](C)/C=C/C=C3\\CO[C@@H]4[C@H](O)C(C)=C[C@@H](C(=O)O1)[C@]34O)O2 (tested in a mixture with another compound)" group=inactive
compound=CNC(=O)Oc1ccccc1OC(C)C group=inactive
compound=CCN(CC)C(=O)SCc1ccc(Cl)cc1 group=active
compound=N#CN group=inactive
compound=N#Cc1c(Cl)c(Cl)c(Cl)c(C#N)c1Cl group=active
compound=COP(=O)(OC)OC=C(Cl)Cl group=active
compound=CCCN(CCC)c1c([N+](=O)[O-])cc(C(F)(F)F)cc1[N+](=O)[O-] group=active
compound=CC(C)OC(=O)Nc1cccc(Cl)c1 group=active
compound=CC(C)N(C(=O)COc1nnc(C(F)(F)F)s1)c1ccc(F)cc1 group=active
compound=COC(=O)c1ccccc1S(=O)(=O)NC(=O)N(C)c1nc(C)nc(OC)n1 group=inactive
